// data source = patent US20210122739A1

Below, each entry is listed alongside its reported IC50.
# target desc: NLRP3 (Homo sapiens, UniProt Q96P20)
# Sequence (Q96P20 whole entry): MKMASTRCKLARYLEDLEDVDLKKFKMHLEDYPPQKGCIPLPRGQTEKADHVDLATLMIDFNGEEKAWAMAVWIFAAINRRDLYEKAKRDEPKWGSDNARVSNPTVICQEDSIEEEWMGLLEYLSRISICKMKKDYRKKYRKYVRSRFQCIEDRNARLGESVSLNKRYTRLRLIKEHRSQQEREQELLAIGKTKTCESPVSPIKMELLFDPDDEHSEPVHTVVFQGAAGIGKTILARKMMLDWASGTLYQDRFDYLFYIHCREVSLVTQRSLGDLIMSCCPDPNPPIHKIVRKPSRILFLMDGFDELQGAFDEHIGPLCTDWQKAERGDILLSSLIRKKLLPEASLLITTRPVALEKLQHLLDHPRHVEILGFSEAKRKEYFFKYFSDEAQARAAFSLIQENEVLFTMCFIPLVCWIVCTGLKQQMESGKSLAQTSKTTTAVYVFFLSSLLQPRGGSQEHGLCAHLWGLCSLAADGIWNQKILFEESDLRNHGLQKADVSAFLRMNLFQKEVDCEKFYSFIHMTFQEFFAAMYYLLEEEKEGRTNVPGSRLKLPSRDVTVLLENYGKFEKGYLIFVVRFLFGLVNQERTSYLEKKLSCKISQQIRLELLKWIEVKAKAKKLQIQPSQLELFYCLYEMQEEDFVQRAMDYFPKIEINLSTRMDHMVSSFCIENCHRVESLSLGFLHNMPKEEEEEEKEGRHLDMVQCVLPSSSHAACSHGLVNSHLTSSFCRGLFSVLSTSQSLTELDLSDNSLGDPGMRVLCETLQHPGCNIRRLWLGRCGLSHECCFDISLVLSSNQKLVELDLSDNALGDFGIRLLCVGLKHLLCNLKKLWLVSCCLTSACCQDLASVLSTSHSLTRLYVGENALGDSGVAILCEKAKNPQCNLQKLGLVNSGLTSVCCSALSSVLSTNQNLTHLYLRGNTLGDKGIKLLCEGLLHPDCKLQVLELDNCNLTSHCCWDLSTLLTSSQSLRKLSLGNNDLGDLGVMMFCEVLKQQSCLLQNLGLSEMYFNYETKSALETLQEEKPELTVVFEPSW
# assay summary: THP-1 cells pyroptosis assay
# Assay type: cell-based
# Set-up: Seed THP-1 cells (25,000 cells/well) containing 1.0 μg/ml LPS; host or cells: THP-1 cells, LPS-primed, nigericin-stimulated
# test conditions: 1.0 μg/ml LPS, nigericin 5 μM, resazurin readout

These solved cases illustrate the format of a correct answer.
compound: CCN(CC)C(=O)c1cc(S(=O)(=O)NC(=O)Nc2c(C(C)C)cccc2C(C)C)nn1C
IC50: 640 to 2560 nM

compound: CC(C)c1cc(F)cc(C(C)C)c1NC(=O)NS(=O)(=O)c1cc(C(=O)N(C)C(C)C)n(C)n1
IC50: 40 to 160 nM

compound: CN(CC(O)CO)C(=O)c1cc(S(=O)(=O)NC(=O)Nc2c3c(cc4c2CCC4)CCC3)nn1C (stereo not shown)
IC50: 640 to 2560 nM

# IC50 of `COCCN(CCOC)C(=O)c1cc(S(=O)(=O)NC(=O)Nc2c(-c3ccnc(OC)c3)ccc3c2CCC3)nn1C` = 160 to 640 nM

----------
# target desc: NLRP3 (Homo sapiens, UniProt Q96P20)
# assay summary: Human whole blood IL1β release assay
# Type: cell-based
# Parameters: Plate out 80 μl of whole blood containing 1 μg/ml of LPS; from tissue; host or cells: human whole blood from healthy donors, LPS-primed, nigericin-stimulated
# test conditions: 1 μg/ml LPS, nigericin 10 μM, IL-1β by AlphaLisa, read-out: HWB IC50
Below, each entry is listed alongside its reported IC50.

# IC50 of `COCCN(CCOC)C(=O)c1cc(S(=O)(=O)NC(=O)Nc2c3c(cc4c2CCC4)CCC3)nn1C` = 400 to 800 nM

# IC50 of `CN(CC#N)C(=O)c1cc(S(=O)(=O)NC(=O)Nc2c3c(cc4c2CCC4)CCC3)nn1C` = 800 to 1600 nM

# IC50 of `CCN(CCO)C(=O)c1cc(S(=O)(=O)NC(=O)Nc2c3c(cc4c2CCC4)CCC3)nn1C` = 800 to 1600 nM

# IC50 of `COc1cc(-c2ccc3c(c2NC(=O)NS(=O)(=O)c2cc(C(=O)N(C)C)n(C)n2)CCC3)ccn1` = < 400 nM

# IC50 of `CCN(CC)C(=O)c1cc(S(=O)(=O)NC(=O)Nc2c3c(cc4c2CCC4)CCC3)nn1C` = 800 to 1600 nM

# IC50 of `CN(CCCO)C(=O)c1cc(S(=O)(=O)NC(=O)Nc2c3c(cc4c2CCC4)CCC3)nn1C` = 1600 to 3200 nM

# IC50 of `CNC(=O)c1cc(S(=O)(=O)NC(=O)Nc2c(C(C)C)cccc2C(C)C)nn1C` = 400 to 800 nM

# IC50 of `CCN(C)C(=O)c1cc(S(=O)(=O)NC(=O)Nc2c3c(cc4c2CCC4)CCC3)nn1C` = 400 to 800 nM

----------
Below, each entry is listed alongside its reported pIC50.
# target desc: NLRP3 (Homo sapiens, UniProt Q96P20)
# assay summary: Human whole blood IL1β release assay
# Format: cell-based
# Parameters: Plate out 80 μl of whole blood containing 1 μg/ml of LPS; from tissue; host or cells: human whole blood from healthy donors, LPS-primed, nigericin-stimulated
# test conditions: 1 μg/ml LPS, nigericin 10 μM, IL-1β by AlphaLisa, read-out: HWB IC50
pIC50: −log10 of the molar value.

These solved cases illustrate the format of a correct answer.
compound: CC(=O)N(C)Cc1cc(S(=O)(=O)NC(=O)Nc2c3c(cc4c2CCC4)CCC3)nn1C(C)C [Example 29]
metric name: pIC50
value observed: 6.10 to 6.40

compound: CC(C)c1cc(F)cc(-c2cccnc2)c1NC(=O)NS(=O)(=O)c1cc(C(=O)N(C)C)n(C)n1 [Example 41]
metric name: pIC50
value observed: > 6.40

compound: CC(C)c1cc(F)cc(-c2cncnc2)c1NC(=O)NS(=O)(=O)c1cc(C(=O)N(C)C)n(C)n1 [Example 42]
metric name: pIC50
value observed: > 6.40

# pIC50 of CN(CCO)C(=O)c1cc(S(=O)(=O)NC(=O)Nc2c3c(cc4c2CCC4)CCC3)nn1C [Example 78] = > 6.40

----------
# target desc: NLRP3 (Homo sapiens, UniProt Q96P20)
# assay summary: Human whole blood IL1β release assay
# Type: cell-based
# Design: Plate out 80 μl of whole blood containing 1 μg/ml of LPS; from tissue; host or cells: human whole blood from healthy donors, LPS-primed, nigericin-stimulated
# test conditions: 1 μg/ml LPS, nigericin 10 μM, IL-1β by AlphaLisa, read-out: HWB IC50
pIC50: −log10 of the molar value.
metric name: pIC50

These solved cases illustrate the format of a correct answer.
structure as smiles: CN(C(=O)c1cc(S(=O)(=O)NC(=O)Nc2c3c(cc4c2CCC4)CCC3)nn1C)C1CCC1
metric name: pIC50
value observed: 5.00 to 5.49

structure as smiles: CC(C)n1nc(S(=O)(=O)NC(=O)Nc2c3c(cc4c2CCC4)CCC3)cc1C(=O)N1CCC1
metric name: pIC50
value observed: 5.80 to 6.10

structure as smiles: COCCN(CCOC)C(=O)c1cc(S(=O)(=O)NC(=O)Nc2c(-c3ccnc(OC)c3)ccc3c2CCC3)nn1C
metric name: pIC50
value observed: > 6.40

structure as smiles: CC(C)c1cccc(C(C)C)c1NC(=O)NS(=O)(=O)c1cc(C(=O)N2CC(F)C2)n(C)n1
metric name: pIC50
value observed: 5.80 to 6.10

structure as smiles: CC(C)c1cccc(C(C)C)c1NC(=O)NS(=O)(=O)c1cc(C(=O)N(C)C2CC2)n(C)n1
metric name: pIC50
value observed: 5.80 to 6.10

# pIC50 of `CC(C)c1cc(F)cc(C(C)C)c1NC(=O)NS(=O)(=O)c1cc(C(=O)N2CCC2)n(C)n1` = > 6.40

# pIC50 of `CC(C)Oc1cc(-c2cc(F)cc(C(C)C)c2NC(=O)NS(=O)(=O)c2cc(C(=O)N(C)C)n(C)n2)ccn1` = 5.49 to 5.80

----------
# target desc: NLRP3 (Homo sapiens, UniProt Q96P20)
# assay summary: THP-1 cells pyroptosis assay
# Type: cell-based
# Set-up: Seed THP-1 cells (25,000 cells/well) containing 1.0 μg/ml LPS; host or cells: THP-1 cells, LPS-primed, nigericin-stimulated
# test conditions: 1.0 μg/ml LPS, nigericin 5 μM, resazurin readout
# Procedure: […] THP-1 cells (ATCC #TIB-202) were grown in RPMI containing L-glutamine (Gibco #11835) supplemented with 1 mM sodium pyruvate (Sigma #S8636) and penicillin (100 units/ml)/streptomycin (0.1 mg/ml) (Sigma #P4333) in 10% Fetal Bovine Serum (FBS) (Sigma #F0804). […] The cells were then counted and viability (>90%) checked by Trypan blue (Sigma #T8154). […] The following method step-by-step assay was followed for compound screening. • 1. […] Plates were read in an Envision reader at Ex 560 nm and Em 590 nm • 9. […]
metric name: IC50

structure as smiles: CCN(CC)C(=O)c1cc(S(=O)(=O)NC(=O)Nc2c3c(cc4c2CCC4)CCC3)nn1C
IC50: 40 to 160 nM

# IC50 of `CN(CCC#N)C(=O)c1cc(S(=O)(=O)NC(=O)Nc2c3c(cc4c2CCC4)CCC3)nn1C` = 160 to 640 nM

# IC50 of `CC(C)c1ccc(-c2cnn(C)c2)cc1NC(=O)NS(=O)(=O)c1cc(C(=O)N(C)C)n(C)n1` = 640 to 2560 nM

# IC50 of `Cn1nc(S(=O)(=O)NC(=O)Nc2c3c(cc4c2CCC4)CCC3)cc1C(=O)N1CC(F)C1` = 640 to 2560 nM

# IC50 of `CN(CC#N)C(=O)c1cc(S(=O)(=O)NC(=O)Nc2c3c(cc4c2CCC4)CCC3)nn1C` = 160 to 640 nM

# IC50 of `CC(C)c1cccc(C(C)C)c1NC(=O)NS(=O)(=O)c1cc(C(=O)N(C)CC#N)n(C)n1` = 2560 to 10000 nM

# IC50 of `Cn1nc(S(=O)(=O)NC(=O)Nc2c3c(cc4c2CCC4)CCC3)cc1C(=O)N1CCOCC1` = 640 to 2560 nM

# IC50 of `CC(=O)NCCN(C)C(=O)c1cc(S(=O)(=O)NC(=O)Nc2c3c(cc4c2CCC4)CCC3)nn1C` = 2560 to 10000 nM

----------
# assay summary: PK protocol: pharmacokinetic parameters in male Sprague Dawley rats
# Type: in vivo
# test conditions: plasma, oral administration, rat, dose per compound in Dose column (3 or 5 mg/kg)
# Protocol: Pharmacokinetic parameters were determined in male Sprague Dawley rats (Charles River, UK, 250-350 g; or Vital River Laboratory Animal Technology Co Ltd, Beijing, China, 7-9 weeks old). Animals were individually housed during the study and maintained under a 12 h light/dark cycle. Animals had free access to food and water except that some orally dosed animals were food deprived overnight prior to the study. […]
Below, each entry is listed alongside its reported bioavailability.
Could you give the number and then its unit, please?

compound: CN(C)C(=O)c1cc(S(=O)(=O)NC(=O)Nc2c3c(cc4c2CCC4)CCC3)nn1C [Example 69]
value observed: 62%
--
compound: COCCN(C)C(=O)c1cc(S(=O)(=O)NC(=O)Nc2c3c(cc4c2CCC4)CCC3)nn1C [Example 27]
value observed: 67%

Would you kindly look at the next entry?
# bioavailability of CC(C)c1cc(F)cc(C(C)C)c1NC(=O)NS(=O)(=O)c1cc(C(=O)N(C)C)n(C)n1 [Example 60] = 54.3%
